These data points were gathered from ChEMBL document CHEMBL3885861.

Species: Rattus norvegicus
ASSAY_COMMENT: Open TG-GATES - Regimen: Single
Type: toxicity, organism-based, Sprague-Dawley
Set-up: regimen Single, gender Male, age 6 weeks
CONDITION_PARAMETERS: in vivo, po, 0 mg/kg, 24 h, tissue Blood, route gavage, dose level Control
MEASUREMENT_TYPE: Eos (%)

compound="COc1ccc2[nH]c([S+]([O-])Cc3ncc(C)c(OC)c3C)nc2c1 (stereo not drawn) [OMEPRAZOLE]" measurement_type=Eos value_observed=1
compound="CN1C(=O)CN=C(c2ccccc2)c2cc(Cl)ccc21 [DIAZEPAM]" measurement_type=Eos value_observed=1
compound="CN(C)CCCN1c2ccccc2CCc2ccc(Cl)cc21 [CLOMIPRAMINE]" measurement_type=Eos value_observed=0.8
compound="NNC(=O)c1ccncc1 [ISONIAZID]" measurement_type=Eos value_observed=1.2
compound="COC1=CC(=O)C[C@@H](C)[C@]12Oc1c(Cl)c(OC)cc(OC)c1C2=O [GRISEOFULVIN]" measurement_type=Eos value_observed=1
compound="CCOC(=O)CCC(=O)O[C@H]1[C@H](O[C@@H]2[C@@H](C)[C@H](O[C@H]3C[C@@](C)(OC)[C@@H](O)[C@H](C)O3)[C@@H](C)C(=O)O[C@H](CC)[C@@](C)(O)[C@H](O)[C@@H](C)C(=O)[C@H](C)C[C@@]2(C)O)O[C@H](C)C[C@@H]1N(C)C [ERYTHROMYCIN ETHYLSUCCINATE]" measurement_type=Eos value_observed=1
compound="COc1cc2c(c(OC)c1OC)-c1ccc(OC)c(=O)cc1[C@@H](NC(C)=O)CC2 [COLCHICINE]" measurement_type=Eos value_observed=1.2
compound="CN(C)CCCN1c2ccccc2CCc2ccccc21 [IMIPRAMINE]" measurement_type=Eos value_observed=1.2
compound="C[C@@H]1C[C@H]2[C@@H]3CCC4=CC(=O)C=C[C@]4(C)[C@@]3(F)[C@@H](O)C[C@]2(C)[C@@]1(O)C(=O)CO [DEXAMETHASONE]" measurement_type=Eos value_observed=1
compound="CC/C(=C(\\c1ccccc1)c1ccc(OCCN(C)C)cc1)c1ccccc1 [TAMOXIFEN]" measurement_type=Eos value_observed=1
compound="O=C(CCCN1CCC(O)(c2ccc(Cl)cc2)CC1)c1ccc(F)cc1 [HALOPERIDOL]" measurement_type=Eos value_observed=0.8
compound="CCOc1ccc(NC(=O)CC(C)O)cc1 (stereo not drawn) [BUCETIN]" measurement_type=Eos value_observed=0.8
compound="CC(C)OC(=O)C(C)(C)Oc1ccc(C(=O)c2ccc(Cl)cc2)cc1 [FENOFIBRATE]" measurement_type=Eos value_observed=1
compound="Cc1ccc(C)c(OCCCC(C)(C)C(=O)O)c1 [GEMFIBROZIL]" measurement_type=Eos value_observed=0.8
compound="NC(N)=Nc1nc(CSCCC(N)=NS(N)(=O)=O)cs1 [FAMOTIDINE]" measurement_type=Eos value_observed=1
compound=CN(C)CCN(Cc1cccs1)c1ccccn1 measurement_type=Eos value_observed=0.8
compound="CCCNC(=O)NS(=O)(=O)c1ccc(Cl)cc1 [CHLORPROPAMIDE]" measurement_type=Eos value_observed=0.8
compound="CC1=C(/C=C/C(C)=C/C=C/C(C)=C/CO)C(C)(C)CCC1 [RETINOL]" measurement_type=Eos value_observed=0.8
